measuredTarget: CDK9/cyclin T1 (Homo sapiens, UniProt P50750)
Sequence (O60563 whole entry, the tested form may be a part): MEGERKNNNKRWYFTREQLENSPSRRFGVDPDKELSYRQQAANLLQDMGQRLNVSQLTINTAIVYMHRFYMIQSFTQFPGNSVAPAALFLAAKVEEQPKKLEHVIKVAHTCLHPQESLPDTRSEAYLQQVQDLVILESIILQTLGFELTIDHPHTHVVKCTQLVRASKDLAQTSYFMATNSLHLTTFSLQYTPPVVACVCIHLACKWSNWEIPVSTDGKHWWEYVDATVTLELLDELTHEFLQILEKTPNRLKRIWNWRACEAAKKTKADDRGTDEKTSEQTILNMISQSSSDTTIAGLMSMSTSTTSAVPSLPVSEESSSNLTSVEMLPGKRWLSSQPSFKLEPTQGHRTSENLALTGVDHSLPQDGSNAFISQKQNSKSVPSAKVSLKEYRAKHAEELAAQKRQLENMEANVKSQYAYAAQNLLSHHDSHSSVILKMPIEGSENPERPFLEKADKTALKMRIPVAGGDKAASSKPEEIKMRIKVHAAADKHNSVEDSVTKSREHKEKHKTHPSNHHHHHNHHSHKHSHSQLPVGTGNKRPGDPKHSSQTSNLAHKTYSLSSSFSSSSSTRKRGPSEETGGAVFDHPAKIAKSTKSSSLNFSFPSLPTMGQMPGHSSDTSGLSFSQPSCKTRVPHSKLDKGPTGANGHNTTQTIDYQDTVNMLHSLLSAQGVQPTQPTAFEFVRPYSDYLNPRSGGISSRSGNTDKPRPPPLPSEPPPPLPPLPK
Sequence (P50750 whole entry, the tested form may be a part): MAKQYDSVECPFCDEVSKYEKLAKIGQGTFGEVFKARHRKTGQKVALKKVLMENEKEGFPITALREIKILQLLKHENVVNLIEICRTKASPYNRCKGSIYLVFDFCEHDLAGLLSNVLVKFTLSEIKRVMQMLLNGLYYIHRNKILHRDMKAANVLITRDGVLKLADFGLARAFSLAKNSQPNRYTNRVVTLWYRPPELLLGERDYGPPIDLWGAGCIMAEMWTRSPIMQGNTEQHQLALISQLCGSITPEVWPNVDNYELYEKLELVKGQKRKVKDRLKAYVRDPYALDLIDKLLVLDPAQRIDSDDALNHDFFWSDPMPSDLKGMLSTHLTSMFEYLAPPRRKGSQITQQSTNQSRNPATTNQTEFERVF
assayInfo: Inhibition of human full-length N-terminal GST-fused CDK9 (1 to 372 residues)/His-tagged Cyclin-T1 (1 to 726 residues) expressed in baculovirus expression system using PEP as substrate incubated for 17 mins in presence of ATP by TR-FRET assay
Hi! Just check whether IC50 is below 0.03 µM. Below gives Condition met, equal or above gives Condition not met.

compound: CC(=O)c1c(C)c2cnc(Nc3ccc(N(C)CCN(C)C)cc3)nc2n(C23CC(C2)C3)c1=O
measuredTarget: CDK9/cyclin T1 (Homo sapiens, UniProt P50750)
cat: Condition not met
//
compound: CN1CCN(C2CCN(c3ccc(Nc4ncc5cc(C(=O)N(C)C)n(C67CC(C6)C7)c5n4)cc3F)CC2)CC1
measuredTarget: CDK9/cyclin T1 (Homo sapiens, UniProt P50750)
cat: Condition met
//
compound: CN1CCN(c2ccc(Nc3ncc4c(n3)N(C3CCCC3)C3(CC(=O)NC3=O)C4)cc2F)CC1 (configuration not stated)
measuredTarget: CDK9/cyclin T1 (Homo sapiens, UniProt P50750)
cat: Condition met
//
compound: CC(=O)c1c(C)c2cnc(Nc3ccc(N(C)CCN(C)C)cc3)nc2n(C2CCCC2)c1=O
measuredTarget: CDK9/cyclin T1 (Homo sapiens, UniProt P50750)
cat: Condition met
//
compound: CC(C)N1CCN(c2ccc(Nc3ncc4c(n3)N(C3CCCC3)C3(CC(=O)NC3=O)C4)cc2)CC1 (configuration not stated)
measuredTarget: CDK9/cyclin T1 (Homo sapiens, UniProt P50750)
cat: Condition not met
//
compound: CN1CCN(c2ccc(Nc3ncc4cc(C(=O)N(C)C)n(C56CC(C5)C6)c4n3)cc2)CC1
measuredTarget: CDK9/cyclin T1 (Homo sapiens, UniProt P50750)
cat: Condition met
//
compound: CC(=O)c1c(C)c2cnc(Nc3ccc(OCCN(C)C)c(F)c3)nc2n(C2CCCC2)c1=O
measuredTarget: CDK9/cyclin T1 (Homo sapiens, UniProt P50750)
cat: Condition not met
//
compound: CC(=O)c1c(C)c2cnc(Nc3ccc(N4CC(C)NC(C)C4)cc3)nc2n(C2CCCC2)c1=O (configuration not stated)
measuredTarget: CDK9/cyclin T1 (Homo sapiens, UniProt P50750)
cat: Condition met
//
compound: CN1CCN(c2ccc(Nc3ncc4c(n3)N(C3CCCC3)C3(CCNC3=O)C4)cc2F)CC1 (configuration not stated)
measuredTarget: CDK9/cyclin T1 (Homo sapiens, UniProt P50750)
cat: Condition not met
//
compound: CN1CCN(c2ccc(Nc3ncc4c(n3)N(C3CCCC3)C3(CC(=O)NC3=O)C4)cc2)CC1 (configuration not stated)
measuredTarget: CDK9/cyclin T1 (Homo sapiens, UniProt P50750)
cat: Condition not met
//
compound: CN(C)C(=O)c1cc2cnc(Nc3ccc(N4CCN(CCO)CC4)c(F)c3)nc2n1C12CC(C1)C2
measuredTarget: CDK9/cyclin T1 (Homo sapiens, UniProt P50750)
cat: Condition met
//
compound: CN(C)C(=O)c1cc2cnc(Nc3ccc(N4CCNCC4)c(F)c3)nc2n1C12CC(C1)C2
measuredTarget: CDK9/cyclin T1 (Homo sapiens, UniProt P50750)
cat: Condition met

---

Listed here: items and their measured IC50.
measuredTarget: CDK6/cyclin D3 (Homo sapiens, UniProt Q00534)
Sequence (P30281 whole entry, the tested form may be a part): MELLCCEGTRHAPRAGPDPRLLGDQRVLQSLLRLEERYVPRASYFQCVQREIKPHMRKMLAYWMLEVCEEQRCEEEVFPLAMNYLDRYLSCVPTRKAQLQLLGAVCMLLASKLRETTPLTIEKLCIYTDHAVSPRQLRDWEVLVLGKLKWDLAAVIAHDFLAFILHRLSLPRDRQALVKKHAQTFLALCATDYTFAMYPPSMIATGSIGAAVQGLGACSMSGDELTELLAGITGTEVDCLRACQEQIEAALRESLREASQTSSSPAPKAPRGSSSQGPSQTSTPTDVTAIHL
Sequence (Q00534 whole entry, the tested form may be a part): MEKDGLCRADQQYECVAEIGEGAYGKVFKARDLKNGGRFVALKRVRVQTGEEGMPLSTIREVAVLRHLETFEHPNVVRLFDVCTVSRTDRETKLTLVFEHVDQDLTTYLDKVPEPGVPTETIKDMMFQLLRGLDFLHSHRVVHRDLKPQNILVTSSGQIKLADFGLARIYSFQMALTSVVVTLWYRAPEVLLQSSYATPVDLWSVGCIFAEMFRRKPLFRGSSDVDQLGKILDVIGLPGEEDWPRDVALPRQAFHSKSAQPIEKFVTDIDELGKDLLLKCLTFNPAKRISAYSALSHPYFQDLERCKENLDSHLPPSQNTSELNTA
assayInfo: Inhibition of human full-length N-terminal GST tagged CDK6 (1 to 326 residues)/cyclinD3 (1 to 292 residues) expressed in baculovirus expression system using PEP as substrate incubated for 3 mins in presence of ATP by TR-FRET assay

compound: CC(=O)c1c(C)c2cnc(Nc3ccc(OCCN(C)C)c(F)c3)nc2n(C2CCCC2)c1=O
measuredTarget: CDK6/cyclin D3 (Homo sapiens, UniProt Q00534)
IC50: 0.0101 µM
--
compound: CN(C)C(=O)c1cc2cnc(Nc3ccc(N4CCNCC4)c(F)c3)nc2n1C12CC(C1)C2
measuredTarget: CDK6/cyclin D3 (Homo sapiens, UniProt Q00534)
IC50: 0.0101 µM
--
compound: CN1CCN(c2ccc(Nc3ncc4c(n3)N(C3CCCC3)C3(CC(=O)NC3=O)C4)cc2F)CC1 (centres undefined)
measuredTarget: CDK6/cyclin D3 (Homo sapiens, UniProt Q00534)
IC50: 0.0706 µM
--
compound: CN1CCN(c2ccc(Nc3ncc4c(n3)N(C3CCCC3)C3(CCNC3=O)C4)cc2F)CC1 (centres undefined)
measuredTarget: CDK6/cyclin D3 (Homo sapiens, UniProt Q00534)
IC50: 0.258 µM
